# assayed.system: Steroid 17-alpha-hydroxylase/17,20 lyase (Homo sapiens)
# Sequence (P05093 whole entry): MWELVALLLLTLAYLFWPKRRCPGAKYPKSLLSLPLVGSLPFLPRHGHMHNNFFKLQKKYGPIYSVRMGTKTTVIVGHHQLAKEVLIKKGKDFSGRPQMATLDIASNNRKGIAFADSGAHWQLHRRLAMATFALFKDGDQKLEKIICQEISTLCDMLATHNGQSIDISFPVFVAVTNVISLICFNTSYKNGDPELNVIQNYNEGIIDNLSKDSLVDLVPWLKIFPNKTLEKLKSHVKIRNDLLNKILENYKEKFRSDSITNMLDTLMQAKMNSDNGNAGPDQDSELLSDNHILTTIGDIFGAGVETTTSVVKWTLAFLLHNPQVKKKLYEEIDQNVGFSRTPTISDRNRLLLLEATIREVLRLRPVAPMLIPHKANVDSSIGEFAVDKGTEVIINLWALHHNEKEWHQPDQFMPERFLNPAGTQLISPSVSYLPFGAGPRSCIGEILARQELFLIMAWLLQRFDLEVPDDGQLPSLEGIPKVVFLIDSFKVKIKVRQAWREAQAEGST
# experiment.notes: Inhibition of human recombinant CYP17A1 incubated for 5 mins in presence of NADPH by LC-MS/MS analysis
observable: IC50

Consider the following illustrative entries.
Cc1cn(C2=CC[C@H]3[C@@H]4CC=C5C[C@@H](NC(=O)c6ccnnc6)CC[C@]5(C)[C@H]4CC[C@]23C)cn1	> 3 µM
C[C@]12CC[C@H](NC(=O)c3ccnnc3)CC1=CC[C@@H]1[C@@H]2CC[C@]2(C)C(n3ccnn3)=CC[C@@H]12	> 3 µM

Kindly review the next compound as well.
q: // map "C[C@]12CC[C@H](NC(=O)c3ccnnc3)CC1=CC[C@@H]1[C@@H]2CC[C@]2(C)C(n3cncn3)=CC[C@@H]12" to recorded IC50 (system: Steroid 17-alpha-hydroxylase/17,20 lyase (Homo sapiens))
a: > 3 µM

Where do the numbers come from? From ChEMBL document CHEMBL5113526.
